B1: library; numbered along this chain (parent)
chain: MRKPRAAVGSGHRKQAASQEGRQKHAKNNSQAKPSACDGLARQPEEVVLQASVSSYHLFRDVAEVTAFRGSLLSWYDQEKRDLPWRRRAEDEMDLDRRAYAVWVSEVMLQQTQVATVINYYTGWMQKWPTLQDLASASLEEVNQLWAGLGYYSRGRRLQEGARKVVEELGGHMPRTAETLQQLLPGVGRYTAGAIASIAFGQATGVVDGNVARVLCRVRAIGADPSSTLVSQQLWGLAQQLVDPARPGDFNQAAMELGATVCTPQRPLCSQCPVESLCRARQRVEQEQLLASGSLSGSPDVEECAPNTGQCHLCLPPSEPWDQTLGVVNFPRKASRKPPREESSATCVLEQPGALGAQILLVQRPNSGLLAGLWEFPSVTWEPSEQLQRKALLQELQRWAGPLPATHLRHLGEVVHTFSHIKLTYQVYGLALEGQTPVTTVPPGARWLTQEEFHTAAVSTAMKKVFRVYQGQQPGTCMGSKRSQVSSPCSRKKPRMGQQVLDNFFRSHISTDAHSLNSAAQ

Variants of: B1
Assay: 8OG:A repair function score (normalized; synonymous = 0, nonsense = -1) (normalized log-likelihood score); higher = more repair activity (WT-like);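 further: cells sorted at 72 h after reporter transfection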
Settings: with 8OG:A DNA repair reporter (GFP) in HEK-293 MUTYH KO cells
Below is a list of entries, each paired with its recorded 8OG:A repair function score value.
Experimental readout: 8OG:A repair function score

{"Mutation id": "L432F", "Experimental readout": "8OG:A repair function score", "Reported value": -0.116}
{"Mutation id": "Q282I", "Experimental readout": "8OG:A repair function score", "Reported value": -0.0327}
{"Mutation id": "S335K", "Experimental readout": "8OG:A repair function score", "Reported value": 0.029}
{"Mutation id": "L430P", "Experimental readout": "8OG:A repair function score", "Reported value": -0.888}
{"Mutation id": "S298T", "Experimental readout": "8OG:A repair function score", "Reported value": 0.00821}
{"Mutation id": "L72E", "Experimental readout": "8OG:A repair function score", "Reported value": -1.21}
{"Mutation id": "L501H", "Experimental readout": "8OG:A repair function score", "Reported value": 0.0143}
{"Mutation id": "V165F", "Experimental readout": "8OG:A repair function score", "Reported value": -0.802}
{"Mutation id": "V468I", "Experimental readout": "8OG:A repair function score", "Reported value": -0.0279}
{"Mutation id": "G471D", "Experimental readout": "8OG:A repair function score", "Reported value": 0.0172}
{"Mutation id": "D77H", "Experimental readout": "8OG:A repair function score", "Reported value": -0.228}
{"Mutation id": "F376Y", "Experimental readout": "8OG:A repair function score", "Reported value": -0.715}
{"Mutation id": "K463C", "Experimental readout": "8OG:A repair function score", "Reported value": -0.196}
{"Mutation id": "R88F", "Experimental readout": "8OG:A repair function score", "Reported value": -0.00866}
{"Mutation id": "A305N", "Experimental readout": "8OG:A repair function score", "Reported value": 0.00434}
{"Mutation id": "K337L", "Experimental readout": "8OG:A repair function score", "Reported value": -0.136}
{"Mutation id": "R219Q", "Experimental readout": "8OG:A repair function score", "Reported value": -0.682}
{"Mutation id": "V166Q", "Experimental readout": "8OG:A repair function score", "Reported value": -0.0914}
{"Mutation id": "Y190A", "Experimental readout": "8OG:A repair function score", "Reported value": -0.38}
{"Mutation id": "F250D", "Experimental readout": "8OG:A repair function score", "Reported value": -1.01}
{"Mutation id": "S74L", "Experimental readout": "8OG:A repair function score", "Reported value": -0.0187}
{"Mutation id": "A457C", "Experimental readout": "8OG:A repair function score", "Reported value": -0.467}
{"Mutation id": "E303G", "Experimental readout": "8OG:A repair function score", "Reported value": -0.0952}
{"Mutation id": "H416P", "Experimental readout": "8OG:A repair function score", "Reported value": -0.576}
{"Mutation id": "A199Q", "Experimental readout": "8OG:A repair function score", "Reported value": -1.11}
{"Mutation id": "T324D", "Experimental readout": "8OG:A repair function score", "Reported value": -0.162}
{"Mutation id": "S54Q", "Experimental readout": "8OG:A repair function score", "Reported value": 0.00389}
{"Mutation id": "T191G", "Experimental readout": "8OG:A repair function score", "Reported value": -0.428}
{"Mutation id": "A291C", "Experimental readout": "8OG:A repair function score", "Reported value": -0.0481}
{"Mutation id": "H410N", "Experimental readout": "8OG:A repair function score", "Reported value": -0.157}
{"Mutation id": "S483F", "Experimental readout": "8OG:A repair function score", "Reported value": 0.0169}
{"Mutation id": "G497L", "Experimental readout": "8OG:A repair function score", "Reported value": -0.0147}
{"Mutation id": "S294H", "Experimental readout": "8OG:A repair function score", "Reported value": -0.0171}
{"Mutation id": "S480G", "Experimental readout": "8OG:A repair function score", "Reported value": 0.00341}
{"Mutation id": "R506V", "Experimental readout": "8OG:A repair function score", "Reported value": -0.0196}
{"Mutation id": "E45C", "Experimental readout": "8OG:A repair function score", "Reported value": -0.0211}
{"Mutation id": "E178M", "Experimental readout": "8OG:A repair function score", "Reported value": 0.0407}
{"Mutation id": "F418S", "Experimental readout": "8OG:A repair function score", "Reported value": -0.474}
{"Mutation id": "P247M", "Experimental readout": "8OG:A repair function score", "Reported value": -0.978}
{"Mutation id": "M125G", "Experimental readout": "8OG:A repair function score", "Reported value": -0.932}
{"Mutation id": "N503F", "Experimental readout": "8OG:A repair function score", "Reported value": 0.0039}
{"Mutation id": "S153C", "Experimental readout": "8OG:A repair function score", "Reported value": -0.074}
{"Mutation id": "G293C", "Experimental readout": "8OG:A repair function score", "Reported value": -0.0307}
{"Mutation id": "P494H", "Experimental readout": "8OG:A repair function score", "Reported value": 0.015}
{"Mutation id": "S480T", "Experimental readout": "8OG:A repair function score", "Reported value": 0.0286}
{"Mutation id": "K127S", "Experimental readout": "8OG:A repair function score", "Reported value": -0.0418}
